- experimental system: human PDE IVA (Homo sapiens)
- Sequence (P27815 whole entry): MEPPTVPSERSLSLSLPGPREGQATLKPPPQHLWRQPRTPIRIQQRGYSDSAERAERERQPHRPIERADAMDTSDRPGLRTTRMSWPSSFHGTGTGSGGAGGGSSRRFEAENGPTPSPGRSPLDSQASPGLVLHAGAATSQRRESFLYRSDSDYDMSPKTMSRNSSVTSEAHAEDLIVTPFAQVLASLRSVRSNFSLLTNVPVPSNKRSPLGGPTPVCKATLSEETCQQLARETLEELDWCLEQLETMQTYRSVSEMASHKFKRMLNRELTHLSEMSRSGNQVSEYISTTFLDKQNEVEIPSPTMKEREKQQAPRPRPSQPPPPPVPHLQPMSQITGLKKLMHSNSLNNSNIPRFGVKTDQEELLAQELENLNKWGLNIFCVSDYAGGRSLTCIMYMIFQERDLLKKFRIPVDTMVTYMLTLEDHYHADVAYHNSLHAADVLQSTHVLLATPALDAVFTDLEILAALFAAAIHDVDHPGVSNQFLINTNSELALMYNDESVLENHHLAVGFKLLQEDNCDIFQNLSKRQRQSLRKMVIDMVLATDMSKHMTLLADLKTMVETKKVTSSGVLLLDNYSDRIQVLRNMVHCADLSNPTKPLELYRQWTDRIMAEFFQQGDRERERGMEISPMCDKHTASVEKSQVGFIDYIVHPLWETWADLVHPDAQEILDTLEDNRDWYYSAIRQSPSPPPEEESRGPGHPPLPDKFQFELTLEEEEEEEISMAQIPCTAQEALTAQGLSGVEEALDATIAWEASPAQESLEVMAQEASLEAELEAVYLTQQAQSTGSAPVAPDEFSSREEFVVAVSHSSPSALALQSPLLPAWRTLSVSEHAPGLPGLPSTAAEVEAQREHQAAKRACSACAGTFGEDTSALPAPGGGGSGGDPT
- test protocol: Isolated recombinant human PDE IVA enzyme, phosphodiesterase activity
- cond: 0.1 μM [3H]-cAMP, pH 7.5, 30° C.
pIC50: −log10 of the molar value. Where a name gives a salt, the structure may show the parent alone.
reported metric: pIC50

[
  {
    "compound": "COc1ccc([C@H](Cc2ccncc2)c2ccc(NC(=O)NS(=O)(=O)c3ccc(C)cc3)cc2)cc1OC1CCCC1 [Example 2, hydrochloride]",
    "experimental system": "human PDE IVA (Homo sapiens)",
    "pIC50": 7.86
  }
]

[A] COc1ccc([C@H](Cc2ccncc2)c2ccc(NC(=O)NS(=O)(=O)c3ccc(Cl)cc3)cc2)cc1OC1CCCC1 [Example 3, hydrochloride]
[B] COc1ccc([C@H](Cc2ccncc2)c2ccc(NC(=O)NS(=O)(=O)c3ccccc3)cc2)cc1OC1CCCC1 [Example 1, hydrochloride]
## Input I need your help: which of the pair A , B has higher pIC50? Could you answer with the label of the item you picked?
## Output B
(B: 8.40, A: 7.75)

----------
- test protocol: Plasma levels after oral administration to squirrel monkeys
- Assay type: in vivo
- cond: monkey, 10 mg/kg p.o., after 30 min, read-out: plasma level
Where a name gives a salt, the structure may show the parent alone.
reported metric: concentration at 0.5 h (ng/mL)
Give the value, in units of ng/mL, as a plain number.

## Input Name the reported concentration at 0.5 h value associated with the compound COc1ccc([C@H](Cc2ccncc2)c2ccc(NC(=O)NS(=O)(=O)c3ccccc3)cc2)cc1OC1CCCC1 [Example 1, hydrochloride]
## Output 34000
